System: Erysiphe graminis tritici
methodSummary: Foliar fungal disease test on plants: Erysiphe graminis tritici (Egt)
Type: in vivo
conditionDetails: 100 ppm active ingredient foliar spray plus root drench (approx. 40 ppm a.i. in dry soil); plants inoculated 24 hours before treatment
Method: The compounds were tested against a variety of foliar fungal diseases of plants. The technique employed was as follows. The plants were grown in John Innes Potting Compost (No.1 or 2) in 4 cm diameter minipots. The test compounds were formulated either by bead milling with aqueous Dispersol T or as a solution in acetone or acetone/ethanol which was diluted to the required concentration immediately before use. […] The disease control vas recorded by the following grading: […]
experimentalReadout: disease control grading, Egt (Erysiphe graminis tritici)

Worked set:
1. CO/C=C(/C(=O)OC)c1ccccc1Oc1cc(-c2c(N)oc3ccccc23)ncn1 :: 4 (4=no disease)
2. CO/C=C(/C(=O)OC)c1ccccc1Oc1cc(OCc2ccco2)ncn1 :: 4 (4=no disease)

Consider the record given below.
Q) disease control grading, Egt (Erysiphe graminis tritici) for CCOc1ccccc1Nc1cc(Oc2ccccc2/C(=C\OC)C(=O)OC)ncn1 ?
A) 4 (4=no disease)

###

# key: entry, value: disease control grading, Pv (Plasmopara viticola)
Test system: Plasmopara viticola
methodSummary: Foliar fungal disease test on plants: Plasmopara viticola (Pv)
Assay type: in vivo
conditionDetails: 10 ppm foliar application only
Marks after values point to notes of the source that are not given here.

1. CO/C=C(/C(=O)OC)c1ccccc1Oc1cc(O/N=C(\C)c2ccccc2)ncn1 [403 of Table I] :: 4^a (4=no disease)

Q) disease control grading, Pv (Plasmopara viticola) for CO/C=C(/C(=O)OC)c1ccccc1Oc1cc(O/N=C(\C)c2ccc[nH]2)ncn1 [407 of Table I] ?
A) 4^a (4=no disease)

Q) disease control grading, Pv (Plasmopara viticola) for CO/C=C(/C(=O)OC)c1ccccc1Oc1cc(OCc2c(Cl)cccc2C(F)(F)F)ncn1 [383 of Table I] ?
A) 4^a (4=no disease)

Q) disease control grading, Pv (Plasmopara viticola) for CO/C=C(/C(=O)OC)c1ccccc1Oc1cc([S+]([O-])c2ccccc2)ncn1 (stereo not drawn) [2 of Table I] ?
A) 4^a (4=no disease)

Q) disease control grading, Pv (Plasmopara viticola) for CO/C=C(/C(=O)OC)c1ccccc1Oc1cc(OCc2ccccc2C#N)ncn1 [389 of Table I] ?
A) 4^a (4=no disease)

Q) disease control grading, Pv (Plasmopara viticola) for CO/C=C(/C(=O)OC)c1ccccc1Oc1cc(-c2sc(-c3ccccc3O)nc2C)ncn1 [399 of Table I] ?
A) 4^a (4=no disease)

Q) disease control grading, Pv (Plasmopara viticola) for CO/C=C(/C(=O)OC)c1ccccc1Oc1cc(NC(=S)c2ccccc2O)ncn1 [367 of Table I] ?
A) 4^a (4=no disease)

Q) disease control grading, Pv (Plasmopara viticola) for COC=C(C(=O)OC)c1ccccc1Oc1nccc(-c2ccccc2)n1 [180 of Table III] ?
A) 4^a (4=no disease)

###

Tested on: Phytophthora infestans lycopersici
Format: in vivo
conditionDetails: 100 ppm active ingredient foliar spray plus root drench (approx. 40 ppm a.i. in dry soil), one or two days before inoculation
experimentalReadout: disease control grading, Pil (Phytophthora infestans lycopersici)

1. CO/C=C(/C(=O)OC)c1ccccc1Oc1cc(OCCc2ccccc2C#N)ncn1 :: 4 (4=no disease)

Consider the record given below.
Q) disease control grading, Pil (Phytophthora infestans lycopersici) for CO/C=C(/C(=O)OC)c1ccccc1Oc1cc(-c2c(N)oc3ccccc23)ncn1 ?
A) 4 (4=no disease)
